# Test system: KP-2 (Pancreatic Carcinoma)
# experiment_description: Bliss excess, mean over the matrix (fraction); higher = more synergy;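 note: after 72 h of two-drug dosing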
endpoint_name: Bliss excess

molecule	result_value
CN(CCO)CC[C@H](CSc1ccccc1)Nc1ccc(S(=O)(=O)NC(=O)c2ccc(N3CCC([C@@H](O)c4ccccc4-c4ccc(Cl)cc4)CC3)cc2)cc1S(=O)(=O)C(F)(F)F [AZD4320] + CCN(CCO)CCCOc1ccc2c(Nc3cc(CC(=O)Nc4cccc(F)c4)[nH]n3)ncnc2c1 [AZD2811] (first compound max 1 µM, 7x7, partner max 1 µM)	0.0653
COc1cccc(OCCCN)c1-c1cc(Nc2cnc(C#N)cn2)n[nH]1 [Prexasertib] + CCc1c2c(nc3ccc(O)cc13)-c1cc3c(c(=O)n1C2)COC(=O)[C@]3(O)CC [SN-38] (first compound max 1 µM, 7x7, partner max 0.3 µM)	0.0983
C[C@@H]1COCCN1c1cc(C2([S@](C)(=N)=O)CC2)nc(-c2ccnc3[nH]ccc23)n1 [AZD6738] + O=C(c1cc(Cc2n[nH]c(=O)c3ccccc23)ccc1F)N1CCN(C(=O)C2CC2)CC1 [Olaparib] (first compound max 10 µM, 7x7, partner max 10 µM)	0.0024

* * *

# Test system: EBC-1 (Squamous Cell Lung Carcinoma)
# experiment_description: Bliss excess, mean over the matrix (fraction); higher = more synergy
Bliss excess by entry:
endpoint_name: Bliss excess

compound	endpoint_name	result_value
COc1cccc(OCCCN)c1-c1cc(Nc2cnc(C#N)cn2)n[nH]1 [Prexasertib] + C[C@@H]1COCCN1C2=NC(=NC(=C2)C3(CC3)[S@](=N)(=O)C)C4=C5C=CNC5=NC=C4 [AZD6738] (first compound max 1 µM, 7x7, partner max 10 µM)	Bliss excess	-0.0113
Cc1cc2ncnn2cc1Nc1ncc2c(n1)n(C1CCOCC1)c(=O)n2C [AZD7648] + CN(C)CCCOc1ccc(-c2ccc3ncc4c(c3c2)n(C2CCOCC2)c(=O)n4C)cn1 [AZD0156] (first compound max 10 µM, 7x7, partner max 1 µM)	Bliss excess	0.0204
CN(C)CCCOc1ccc(-c2ccc3ncc4c(c3c2)n(C2CCOCC2)c(=O)n4C)cn1 [AZD0156] + C=CCn1c(=O)c2cnc(Nc3ccc(N4CCN(C)CC4)cc3)nc2n1-c1cccc(C(C)(C)O)n1 [AZD1775] (first compound max 1 µM, partner max 1 µM)	Bliss excess	-0.0603
COc1cccc(OCCCN)c1-c1cc(Nc2cnc(C#N)cn2)n[nH]1 [Prexasertib] + CCc1c2c(nc3ccc(O)cc13)-c1cc3c(c(=O)n1C2)COC(=O)[C@]3(O)CC [SN-38] (first compound max 1 µM, 7x7, partner max 0.3 µM)	Bliss excess	-0.0694
NC1(C(=O)N[C@@H](CCO)c2ccc(Cl)cc2)CCN(c2ncnc3[nH]ccc23)CC1 [Capivasertib] + Cn1cnc2c(F)c(Nc3ccc(Br)cc3Cl)c(C(=O)NOCCO)cc21 [Selumetinib] (first compound max 10 µM, 7x7, partner max 10 µM)	Bliss excess	0.0557

* * *

# Tested on: KYSE-150 (Esophageal Squamous Cell Carcinoma)
# experiment_description: Bliss excess, mean over the matrix (fraction); higher = more synergy
# class assignment by measured Bliss excess: zone 1 (below -0.01), zone 2 (-0.01 to below 0.08), zone 3 (0.08 or more)

compound	assigned_class
CCc1c2c(nc3ccc(O)cc13)-c1cc3c(c(=O)n1C2)COC(=O)[C@]3(O)CC [SN-38] + O=C(c1cc(Cc2n[nH]c(=O)c3ccccc23)ccc1F)N1CCN(C(=O)C2CC2)CC1 [Olaparib] (first compound max 0.3 µM, 7x7, partner max 10 µM)	zone 2
Cc1c2c(nn1C)CSCc1cc(n(C)n1)CSc1cc(c3ccccc3c1)OCCCc1c(C(=O)O)n(C)c3c-2c(Cl)ccc13 [AZD5991] + C[C@@H](Nc1cc(F)cc(F)c1)c1cc(C(=O)N(C)C)cc2c(=O)cc(N3CCOCC3)oc12 [AZD8186] (first compound max 1 µM, 7x7, partner max 3 µM)	zone 1
CN(CCO)CC[C@H](CSc1ccccc1)Nc1ccc(S(=O)(=O)NC(=O)c2ccc(N3CCC([C@@H](O)c4ccccc4-c4ccc(Cl)cc4)CC3)cc2)cc1S(=O)(=O)C(F)(F)F [AZD4320] + CN(C)CCCOc1ccc(-c2ccc3ncc4c(c3c2)n(C2CCOCC2)c(=O)n4C)cn1 [AZD0156] (first compound max 1 µM, 7x7, partner max 1 µM)	zone 1
Cc1cc2ncnn2cc1Nc1ncc2c(n1)n(C1CCOCC1)c(=O)n2C [AZD7648] + CCN(CCO)CCCOc1ccc2c(Nc3cc(CC(=O)Nc4cccc(F)c4)[nH]n3)ncnc2c1 [AZD2811] (first compound max 10 µM, 7x7, partner max 1 µM)	zone 2
CCc1c2c(nc3ccc(O)cc13)-c1cc3c(c(=O)n1C2)COC(=O)[C@]3(O)CC [SN-38] + CN(C)CCCOc1ccc(-c2ccc3ncc4c(c3c2)n(C2CCOCC2)c(=O)n4C)cn1 [AZD0156] (first compound max 0.3 µM, 7x7, partner max 1 µM)	zone 3
COc1nnc2ccc(N3CCC(c4ccc(OCCN5CCN(C)C(=O)[C@H]5C)cc4)CC3)nn12 [AZD5153] + C=CCn1c(=O)c2cnc(Nc3ccc(N4CCN(C)CC4)cc3)nc2n1-c1cccc(C(C)(C)O)n1 [AZD1775] (first compound max 1 µM, partner max 1 µM)	zone 1
C=CCn1c(=O)c2cnc(Nc3ccc(N4CCN(C)CC4)cc3)nc2n1-c1cccc(C(C)(C)O)n1 [AZD1775] + C1CN(CCC1(C(=O)N[C@@H](CCO)C2=CC=C(C=C2)Cl)N)C3=NC=NC4=C3C=CN4 [Capivasertib] (first compound max 3 µM, partner max 3 µM)	zone 2
CN(C)CCCOc1ccc(-c2ccc3ncc4c(c3c2)n(C2CCOCC2)c(=O)n4C)cn1 [AZD0156] + O=C(c1cc(Cc2n[nH]c(=O)c3ccccc23)ccc1F)N1CCN(C(=O)C2CC2)CC1 [Olaparib] (first compound max 3 µM, partner max 3 µM)	zone 3
CCN(CCO)CCCOc1ccc2c(Nc3cc(CC(=O)Nc4cccc(F)c4)[nH]n3)ncnc2c1 [AZD2811] + C[C@@H]1COCCN1C2=NC(=NC(=C2)C3(CC3)[S@](=N)(=O)C)C4=C5C=CNC5=NC=C4 [AZD6738] (first compound max 1 µM, 7x7, partner max 10 µM)	zone 1
Cn1cnc2c(F)c(Nc3ccc(Br)cc3Cl)c(C(=O)NOCCO)cc21 [Selumetinib] + C=CCn1c(=O)c2cnc(Nc3ccc(N4CCN(C)CC4)cc3)nc2n1-c1cccc(C(C)(C)O)n1 [AZD1775] (first compound max 10 µM, partner max 1 µM)	zone 2
COc1cccc(OCCCN)c1-c1cc(Nc2cnc(C#N)cn2)n[nH]1 [Prexasertib] + CCc1c2c(nc3ccc(O)cc13)-c1cc3c(c(=O)n1C2)COC(=O)[C@]3(O)CC [SN-38] (first compound max 1 µM, 7x7, partner max 0.3 µM)	zone 3

* * *

# Test system: VMRC-LCD (Lung Adenocarcinoma)
# experiment_description: Bliss excess, mean over the matrix (fraction); higher = more synergy
endpoint_name: Bliss excess

compound	study_system	result_value
CC(=O)c1c(C)c2cnc(Nc3ccc(N4CCNCC4)cn3)nc2n(C2CCCC2)c1=O [Palbociclib] + Cc1c2c(nn1C)CSCc1cc(n(C)n1)CSc1cc(c3ccccc3c1)OCCCc1c(C(=O)O)n(C)c3c-2c(Cl)ccc13 [AZD5991] (first compound max 10 µM, 7x7, partner max 1 µM)	VMRC-LCD (Lung Adenocarcinoma)	-0.0288
CS(=O)(=O)CCNCc1ccc(-c2ccc3ncnc(Nc4ccc(OCc5cccc(F)c5)c(Cl)c4)c3c2)o1 [Lapatinib] + Cn1cnc2c(F)c(Nc3ccc(Br)cc3Cl)c(C(=O)NOCCO)cc21 [Selumetinib] (first compound max 10 µM, 7x7, partner max 10 µM)	VMRC-LCD (Lung Adenocarcinoma)	-0.0369
CN(CCO)CC[C@H](CSc1ccccc1)Nc1ccc(S(=O)(=O)NC(=O)c2ccc(N3CCC([C@@H](O)c4ccccc4-c4ccc(Cl)cc4)CC3)cc2)cc1S(=O)(=O)C(F)(F)F [AZD4320] + CS(=O)(=O)CCNCc1ccc(-c2ccc3ncnc(Nc4ccc(OCc5cccc(F)c5)c(Cl)c4)c3c2)o1 [Lapatinib] (first compound max 1 µM, 7x7, partner max 10 µM)	VMRC-LCD (Lung Adenocarcinoma)	0.0981

* * *

# Test system: KYSE-50 (Esophageal Squamous Cell Carcinoma)
# experiment_description: Bliss excess, mean over the matrix (fraction); higher = more synergy

compound	Bliss excess
NC1(C(=O)N[C@@H](CCO)c2ccc(Cl)cc2)CCN(c2ncnc3[nH]ccc23)CC1 [Capivasertib] + CC(=O)c1c(C)c2cnc(Nc3ccc(N4CCNCC4)cn3)nc2n(C2CCCC2)c1=O [Palbociclib] (first compound max 10 µM, 7x7, partner max 10 µM)	-0.0129
COc1cc2ncnc(Nc3ccc(F)c(Cl)c3)c2cc1OCCCN1CCOCC1 [Gefitinib] + CC(C)n1c(=O)n(C)c2cnc3cc(F)c(-c4ccc(OCCCN5CCCCC5)nc4)cc3c21 [AZD1390] (first compound max 10 µM, 7x7, partner max 0.3 µM)	-0.0546
